These entries and their values trace back to patent US6093717A.

In what follows, each item is paired with its Ki for human α-thrombin (Homo sapiens, UniProt P00734).
Counter-ions that a name gives are not always drawn.

Example entries and their recorded answers appear below.
• Cc1cnc(NCCc2ccccc2)c(=O)n1CC(=O)NCc1ccc2nccn2c1 [Example 1, dihydrochloride] = > 0.02 µM
• Cc1cnc(NCCc2ccccn2)c(=O)n1CC(=O)NCc1ccc2nccn2c1C = < 0.02 µM

--- query ---
Input: So what Ki did Cc1cc2nccn2cc1CNC(=O)Cn1c(C)cnc(NCCc2ccccc2)c1=O [Example 4, dihydrochloride] get with human α-thrombin (Homo sapiens, UniProt P00734)?
Output: > 0.02 µM

---

Counter-ions that a name gives are not always drawn.
In what follows, each item is paired with its Ki for UniProt:P00734.

* Cc1cc2c(c(=O)n1CC(=O)NCc1ccc3nccn3c1C)NC(=O)[C@H](Cc1ccccc1)C2 [Example 9] | < 20 nM
* Cc1cc(S(=O)(=O)CC2CCC2)c(N)c(=O)n1CC(=O)NCc1ccc2nccn2c1C [Example 6, hydrochloride] | < 20 nM
* CC[C@H](C)CC1Cc2cc(C)n(CC(=O)NCc3ccc4nccn4c3C)c(=O)c2NC1=O (stereo partly drawn) [Example 10] | < 20 nM
* Cc1cnc(NCCc2ccccc2)c(=O)n1CC(=O)NCc1ccn2ccnc2c1 [Example 5] | > 20 nM

Input: What does the data say about its Ki? Entry: Cc1cc(CNC(=O)Cn2c(C)cnc(NCCc3ccccc3)c2=O)cn2ccnc12 [Example 3, dihydrochloride]
Output: > 20 nM

Input: What does the data say about its Ki? Entry: Cc1ccc(NS(=O)(=O)Cc2ccccc2)c(=O)n1CC(=O)NCc1ccc2nccn2c1C [Example 8, hydrochloride]
Output: < 20 nM
